Measured EC50, listed per entry.
- target: T1, PVRIG-hFc protein (human, UniProt Q6DKI7 41-171, limits assumed)
- T1 construct: also called human PVRIG protein; not shown: human Fc (hFc)
- T1 sequence (looked up): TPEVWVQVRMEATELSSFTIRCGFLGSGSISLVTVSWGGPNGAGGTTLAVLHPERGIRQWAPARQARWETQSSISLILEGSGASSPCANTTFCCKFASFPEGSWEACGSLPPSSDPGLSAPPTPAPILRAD
- assayProcedure: blocking ELISA: antibody titrated against PVRIG-hFc binding to coated CD112-His

| binder | unitSymbol | EC50 |
| --- | --- | --- |
| Hab1B10E8.6 (antibody, V domains shown, Humanized antibody; also called Hab1B10E8-VH.1b + Hab1B10E8-VL.1b) VH: QVQLVQSGAEVKKPGASVKVSCKASGYSFPSYWMHWVRQAPGQGLEWIGEINPSNGLTNYNEQFRNRVTMTVDTSTSTVYMELSSLRSEDTAVYYCARHHGSTYYALDSWGQGTLVTVSS VL: DIVMTQSPDSLAVSLGERATINCKSSQSLLNSINQKNFLAWYQQKPGQPPKLLVYFASTRESGVPDRFSGSGSGTDFTLTISSLQAEDVAVYFCQQHYSTPPTFGGGTKLEIK | nM | 0.285 |
| SRF813-IgG1 (antibody, V domains shown) VH: QVQLVQSGAEVKKPGSSVKVSCKASGGTFSSAAISWVRQAPGQGLEWMGNIIPIVGIANYAQKFQGRVTITADESTSTAYMELSSLRSEDTAVYYCARDTGRGYTRHFWFDPWGQGTLVTVSS VL: DIQMTQSPSSLSASVGDRVTITCRASQSISSYLNWYQQKPGKAPKLLIYAASSLQSGVPSRFSGSGSGTDFTLTISSLQPEDFATYYCQQSDILYTFGGGTKVEIK | nM | 0.431 |
| Hab43F7C9.12 (antibody, V domains shown, Humanized antibody; also called Hab43F7C9-VH.1d + Hab43F7C9-VL.1c; 43H7C9.12) VH: QVQLQESGPGLVKPSETLSLTCTVSGYSISSDYAWNWIRQPPGKGLEWIGYIRYNGNTNYNPSLKSRVTISVDTSKNQFSLKLSSVTAADTAVYYCAIIYYDYDGFVYWGQGTTVTVSS VL: DIQMTQSPSSLSASVGDRVTITCRASQNVYENLHWYQQKPGKAPKLLIKFASDSISGVPSRFSGSGSGTDFTLTISSLQPEDFATYYCLQLYSTPYTFGGGTKLEIK | nM | 0.258 |
| Hab21F10C10.12 (antibody, V domains shown, Humanized antibody; also called Hab21F10C10-VH.1d + Hab21F10C10-VL.1c) VH: QVQLVQSGAEVKKPGASVKVSCKASGYTFINNFIEWVRQAPGQGLEWMGVINPGSGDANYAQKFQGRVTMTRDTSISTAYMELSRLRSDDTAVYYCASHWLAYWGQGTTVTVSS VL: EIVMTQSPPTLSLSPGERVTLSCRSSQSLLSSGNQKNYLSWYQQKPGQAPRLLIYGASTRETGIPARFSGSGSGTDFTLTISSLQPEDFAVYYCQNGHFYPYTFGGGTKLEIK | nM | 0.226 |
